Molecular target: UniProtKB P17752
Assay: biochemical
Protocol: Biochemical In Vitro Assay Using Fluorescence Readout To generate the enzyme, full length human TPH1 is cloned into the plasmid pET20b(+) (Novagen) and expressed in E. coli. […] The activity of TPH1 is determined by using a fluorescence assay. […] The amount of 5-hydroxy-L-tryptophan produced during the enzymatic reaction is determined by fluorescence readout. Fluorescence, as determined at 540 nm when excited at 300 nm wavelength, increases proportionally to the 5-hydroxy-L-tryptophan formed. […]
assay_metric: pIC50
# pIC50 is unitless: minus log10 of the molar concentration; print number only

Consider the worked cases shown below.
{"columns": ["molecule", "target_of_assay", "pIC50"],
 "data": [
  ["O=C(COc1ccc2ccccc2c1)N1CCc2nc3cc(C(F)(F)F)ccn3c2C1c1ccccc1F (stereo not shown)", "UniProtKB P17752", 7.77],
  ["COc1ccc(C2c3c(nc4cc(Cl)ccn34)CCN2C(=O)COc2ccc3ccccc3c2)cc1OCCCO (stereo not shown)", "UniProtKB P17752", 7.66],
  ["COc1ccc(C2c3c(nc4cc(Cl)ccn34)CCN2C(=O)COc2ccc(CN3CCOCC3)cc2Cl)cc1O (stereo not shown)", "UniProtKB P17752", 6.81],
  ["CN(C)Cc1csc(C2c3c(nc4ccccn34)CCN2C(=O)COc2ccc(N3CCOCC3)nc2Cl)c1 (stereo not shown)", "UniProtKB P17752", 7.00],
  ["Cc1ccc(C2c3c(nc4cc(C(F)(F)F)ccn34)CCN2C(=O)COc2ccc(CN3CCOCC3)cc2Cl)nc1 (stereo not shown)", "UniProtKB P17752", 7.00]
]}

QUERY: I am curious: what pIC50 value has been reported for CS(=O)(=O)Nc1ccc(OCC(=O)N2CCc3nc4ccccn4c3C2c2ccc(Cl)cc2F)c(C2CC2)n1 (stereo not shown) ?
RESULT: 6.44

QUERY: Any idea what its pIC50 is? The molecule is CS(=O)(=O)Nc1ccc(OCC(=O)N2CCc3nc4cccnn4c3C2c2ccc(Cl)cc2F)c(Cl)n1 (stereo not shown)
RESULT: 6.78

###

molecular target: human TPH1 (Homo sapiens); test: biochemical
Reported IC50 values for the following compounds.
Provide only the numeric value, understood in nM.

{"columns": ["compound", "result_units", "IC50"],
 "data": [
  ["COCc1ccc(C2c3c(nc4ccccn34)CCN2C(=O)COc2ccc(NS(C)(=O)=O)nc2Cl)c(F)c1 (centres unmarked)", "nM", 40],
  ["CCc1nc(C)ccc1OCC(=O)N1CCc2nc3cc(C(F)(F)F)ccn3c2C1c1ccc(Cl)cc1F (centres unmarked)", "nM", 21],
  ["O=C(COc1ccc2ccccc2c1)N1CCc2nc3cc(C(F)(F)F)ccn3c2C1c1ncccc1F (centres unmarked)", "nM", 69],
  ["COc1ccc(C2c3c(nc4cc(C(F)(F)F)ccn34)CCN2C(=O)COc2cccnc2C2CC2)cc1OC (centres unmarked)", "nM", 336]
]}

QUERY: Quick check: IC50 of CC(C)(O)c1ccc(C2c3c(nc4ccccn34)CCN2C(=O)COc2ccc(C(=O)NC3CC3)nc2Cl)c(F)c1 (centres unmarked) ?
RESULT: 244

QUERY: For the compound Cc1ccc(C2c3c(nc4cc(C(F)(F)F)ccn34)CCN2C(=O)COc2nn(C)c(C(F)(F)F)c2Cl)c(F)c1 (centres unmarked) , what IC50 is on record?
RESULT: 33

QUERY: Look up IC50 for this compound: COc1ccc(C2c3c(nc4ccccn34)CCN2C(=O)COc2cc(C)ccc2C)cc1OC (centres unmarked)
RESULT: 418

QUERY: Entry COc1ccc(C2c3c(nc4cc(C(F)(F)F)ccn34)CCN2C(=O)COc2cnc3ccccc3c2)cc1OC (centres unmarked) : reported IC50 = ?
RESULT: 165

QUERY: GET /values?readout=IC50&item= O=C(COc1ccc(N2CCOCC2)cc1Cl)N1CCc2nc3cc(C(F)(F)F)ccn3c2C1c1ncccc1F (centres unmarked)
RESULT: 88

QUERY: Data request, read-out IC50, for CS(=O)(=O)Nc1ccc(OCC(=O)N2CCc3nc4ccccn4c3C2c2ccc(Cl)cc2F)c(Cl)n1 (centres unmarked)
RESULT: 10

QUERY: Look up IC50 for this compound: O=C(COc1ccc(CN2CCOCC2)cc1Cl)N1CCc2nc3cc(C(F)(F)F)ccn3c2C1c1cccnc1 (centres unmarked)
RESULT: 488

QUERY: Item COc1cc(C)c(C2c3c(nc4cc(C(F)(F)F)ccn34)CCN2C(=O)COc2ccc(CN3CCOCC3)cc2Cl)cn1 (centres unmarked) has what recorded IC50?
RESULT: 46

QUERY: Please look up its IC50: Cc1ccc(C2c3c(nc4cc(C(F)(F)F)ccn34)CCN2C(=O)COc2cccnc2Cl)c(F)c1 (centres unmarked)
RESULT: 44

QUERY: Requested field: IC50. Item: COc1ccc(C2c3c(nc4ccccn34)CCN2C(=O)COc2cccc3ccccc23)cc1OC (centres unmarked)
RESULT: 134

QUERY: What does the data say about its IC50? Entry: COc1ccc(C2c3c(nc4cc(C(F)(F)F)ccn34)CCN2C(=O)COc2cccc(C(F)(F)F)c2Cl)cc1OC (centres unmarked)
RESULT: 19

###

molecular target: human TPH1 (Homo sapiens); assay: biochemical
pIC50: −log10 of the molar value. Where a name gives a salt, the structure may show the parent alone.
yes means recorded pIC50 is 7 or above; no means it is below 7.

A selection of reference data follows.
{"columns": ["molecule", "discrete_label"],
 "data": [
  ["Cc1cc(C2c3c(nc4cc(C(F)(F)F)ccn34)CCN2C(=O)COc2ccc3ccccc3c2)n(C)n1 (stereo not shown) [Example 3.40.1]", "no"],
  ["O=C(COc1ccc(CN2CCOCC2)cc1Cl)N1CCc2nc3cc(C(F)(F)F)ccn3c2C1c1ccc(F)cc1 (stereo not shown) [Example 3.29.2]", "no"],
  ["COc1ccc(C2c3c(nc4cc(Cl)ccn34)CCN2C(=O)COc2ccc(CN3CCOCC3)nc2Cl)cc1OC (stereo not shown) [Example 2.1.5]", "no"],
  ["COCc1ccc(C2c3c(nc4ccccn34)CCN2C(=O)COc2ccc(C(=O)NC3CC3)nc2Cl)c(F)c1 (stereo not shown) [Example 1.18.1]", "yes"],
  ["CCc1cc2nc3c(n2cc1C)C(c1ccc(OC)c(OC)c1)N(C(=O)COc1ccc2ccccc2c1C)CC3 (stereo not shown) [Example 6.1.4, hydrochloride]", "yes"]
]}

QUERY: Kindly determine if pIC50 recorded for O=C(COc1ccc(N2CCOCC2)cc1Cl)N1CCc2nc3cc(C(F)(F)F)ccn3c2C1c1ccc(C2CC2)cc1F (stereo not shown) [Example 3.5.2] is above or exactly 7.
RESULT: yes

###

Target: UniProt P17752
Sequence (P17752 1-444): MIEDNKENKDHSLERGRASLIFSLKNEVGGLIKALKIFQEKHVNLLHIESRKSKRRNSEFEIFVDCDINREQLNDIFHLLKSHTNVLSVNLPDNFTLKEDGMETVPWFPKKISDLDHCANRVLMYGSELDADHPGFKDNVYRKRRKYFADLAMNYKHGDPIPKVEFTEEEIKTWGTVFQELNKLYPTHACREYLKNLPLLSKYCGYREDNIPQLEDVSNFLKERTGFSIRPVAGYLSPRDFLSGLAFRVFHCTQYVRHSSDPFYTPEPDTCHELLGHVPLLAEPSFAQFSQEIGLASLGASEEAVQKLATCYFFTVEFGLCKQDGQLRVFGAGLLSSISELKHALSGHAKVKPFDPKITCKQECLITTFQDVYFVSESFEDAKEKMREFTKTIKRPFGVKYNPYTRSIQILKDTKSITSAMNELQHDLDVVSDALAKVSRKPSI
Assay: biochemical
The threshold is 40 nM. Values of IC50 beneath it are tagged met; values meeting or exceeding it are tagged not met.

{"columns": ["compound", "discrete_label"],
 "data": [
  ["O=C(NC1CC1)c1ccc(OCC(=O)N2CCc3nc4ccccn4c3C2c2ccc(Cl)cc2F)c(C2CC2)n1 (centres unmarked) [Example 1.4.13]", "met"],
  ["COc1ccc(C2c3c(nc4cc(C(F)(F)F)ccn34)CCN2C(=O)COc2ccc3ccncc3c2)cc1OC (centres unmarked) [Example 3.1.20]", "met"],
  ["COc1ccc(C2c3c(nc4cc(C(F)(F)F)ccn34)CCN2C(=O)COc2ccc(CN3CCOCC3)cc2Cl)nc1 (centres unmarked) [Example 3.52.2]", "not met"],
  ["Cc1cc(C2c3c(nc4cc(C(F)(F)F)ccn34)CCN2C(=O)COc2ccc(CN3CCOCC3)cc2Cl)ccn1 (centres unmarked) [Example 3.57.2]", "met"],
  ["CCOc1ccc(C2c3c(nc4cc(C(F)(F)F)ccn34)CCN2C(=O)COc2ccc3ccccc3c2)cc1 (centres unmarked) [Example 3.25.1]", "not met"],
  ["CCc1ncccc1OCC(=O)N1CCc2nc3cc(C(F)(F)F)ccn3c2C1c1ccc(OC)c(OC)c1 (centres unmarked) [Example 3.1.30]", "met"],
  ["COc1ccc(C2c3c(nc4cc(C(F)(F)F)ccn34)CCN2C(=O)COc2cc(C(F)(F)F)ccc2Cl)cc1OC (centres unmarked) [Example 3.1.4]", "not met"],
  ["COc1ccc(C2c3c(nc4cc(C(F)(F)F)ccn34)CCN2C(=O)COc2ccccc2C(F)(F)F)cc1OC (centres unmarked) [Example 3.1.7]", "met"],
  ["CCc1nc(NS(C)(=O)=O)ccc1OCC(=O)N1CCc2nc3cccnn3c2C1c1sc(C)nc1C (centres unmarked) [Example 16.5.1]", "met"],
  ["COc1ccc(C2c3c(nc4cc(Cl)ccn34)CCN2C(=O)COc2ccc(CO)cc2Cl)cc1OC (centres unmarked) [Example 2.1.3]", "not met"]
]}

QUERY: Decide: IC50 of COc1ccc(C2c3c(nc4ccc(-c5ccccc5)cn34)CCN2C(=O)COc2ccc3ccccc3c2)cc1OC (centres unmarked) [Example 8.1.1] strictly below 40 nM?
RESULT: met

QUERY: Check if IC50 falls below 40 nM for O=C(COc1ccc(CN2CCOCC2)cc1Cl)N1CCc2nc3cc(C(F)(F)F)ccn3c2C1c1ccc(Cl)cn1 (centres unmarked) [Example 3.58.1] .
RESULT: met

QUERY: Given O=C(COc1ccc2ccccc2c1)N1CCc2nc3cc(C(F)(F)F)ccn3c2C1c1ccc2c(c1)OCCO2 (centres unmarked) [Example 3.17.1] , is recorded IC50 strictly lower than 40 nM?
RESULT: not met

The measured values listed here are drawn from patent US20180155344A1.
